Target: Elastase derived from human leukocytes (Homo sapiens, UniProt P08246)
Construct: Elastase derived from human leukocytes was used; from tissue; host or cells: human leukocytes
Sequence (P08246 30-267): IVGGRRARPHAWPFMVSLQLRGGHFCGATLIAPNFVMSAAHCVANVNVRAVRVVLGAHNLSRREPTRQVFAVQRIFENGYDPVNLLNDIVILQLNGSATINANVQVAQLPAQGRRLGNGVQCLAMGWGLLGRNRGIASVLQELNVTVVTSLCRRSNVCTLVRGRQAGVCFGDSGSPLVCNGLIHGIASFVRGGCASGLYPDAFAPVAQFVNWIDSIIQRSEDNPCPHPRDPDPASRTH
Assay: Inhibition of elastase activity (synthetic substrate, absorbance at 405 nm)
Assay type: biochemical
Conditions: Table 4, relative enzyme activity versus the control group
Where no end group is shown, it is not given here.
Entry flag: 1 if inhibition at 100 µg/mL reaches 60%; 0 if it does not.

In [3]: df
Out[3]:
                                  substance                            assayed_target  label_value
0           FCSSRGK [SEQ ID NO 16, FCSSRGK]  Elastase derived from human leukocytes (Homo sapiens, UniProt P08246)            0
1        KGRSSCFVD [SEQ ID NO 2, KGRSSCFVD]  Elastase derived from human leukocytes (Homo sapiens, UniProt P08246)            1
2       DVFCSSRGK [SEQ ID NO 15, DVFCSSRGK]  Elastase derived from human leukocytes (Homo sapiens, UniProt P08246)            1
3  RKSLFVD [Control peptide sequence, RKSLFVD, reference compound]  Elastase derived from human leukocytes (Homo sapiens, UniProt P08246)            0
4            KGRSSCF [SEQ ID NO 3, KGRSSCF]  Elastase derived from human leukocytes (Homo sapiens, UniProt P08246)            0
